Below is a list of entries, each paired with its recorded CC50 value.
- protocolText: in vitro
- Format: cell-based
- experimentalContext: human; Hep G 2.2.15 cells, MTT, day 3 post-dosing
# number only, unit µM dropped from output

{"compound": "COc1nc(N)nc2c1ncn2[C@@H]1O[C@H](CO[P@@](=O)(N[C@@H](C)C(=O)OC(C)C)Oc2ccccc2)[C@@H](O)[C@@]1(C)F [PSI-353661, reference compound]", "recordedNumber": 149}

Shifting focus to the compound that follows.
I am curious: what CC50 value has been reported for COC(=O)C(C)NP(=O)(OCC1OC(n2ccc(N)nc2=O)CS1)Oc1ccccc1 (stereo not drawn) [Cf1109, reference compound] ?
82

Source: patent US20160115186A1
